Provide the recorded pIC50 for the entries that follow.
target: recombinant 17bHSD4 (M1-N311) (Homo sapiens (Human), UniProt P51659); assay: In Vitro 17bHSD4 Enzyme Assay; conditions: 40 nM 17bHSD4, 0.125 mM NAD, 15 μM Estradiol, 1.5 h; NADH fluorescence; read-out: 17HSD17b4 Enzyme assay IC50
Sequence (P51659 1-311): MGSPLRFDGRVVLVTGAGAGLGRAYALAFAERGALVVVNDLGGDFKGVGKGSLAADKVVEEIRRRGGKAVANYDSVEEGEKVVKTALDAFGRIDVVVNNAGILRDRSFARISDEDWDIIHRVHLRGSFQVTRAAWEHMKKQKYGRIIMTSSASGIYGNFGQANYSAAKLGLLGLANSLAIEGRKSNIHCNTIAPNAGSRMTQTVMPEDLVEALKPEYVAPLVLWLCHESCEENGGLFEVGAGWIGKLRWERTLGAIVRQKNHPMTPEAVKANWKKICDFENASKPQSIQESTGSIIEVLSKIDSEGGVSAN
// pIC50 is dimensionless: -log10 of concentration (M)

Problem: Could you share which pIC50 value was measured for "O=C(c1noc(-c2cc(F)c(F)c(O)c2F)n1)N1CCN(c2ccccn2)CC1" ?
Result: 4.69

Problem: Could you share which pIC50 value was measured for "O=C(c1noc(-c2cc(F)c(F)c(O)c2F)n1)N1CC[C@@H](Oc2ccccc2)C1" ?
Result: 5.02

Problem: Could you share which pIC50 value was measured for "O=C(c1noc(-c2cc(F)c(F)c(O)c2F)n1)N1CCN(CCOc2ccc(Br)cn2)CC1" ?
Result: 4.31

Problem: Could you share which pIC50 value was measured for "O=C(Nc1ccnn1C1CCCCC1)c1cc(-c2ccc(F)c(O)c2)on1" ?
Result: 4.38

Problem: Could you share which pIC50 value was measured for "O=C(c1noc(-c2cc(F)c(F)c(O)c2F)n1)N1CC[C@H](Oc2ccccc2)C1" ?
Result: 4.65

Problem: Could you share which pIC50 value was measured for "N#Cc1cccc2c1CCN(C(=O)c1noc(-c3c(F)c(O)c(F)c(F)c3Br)n1)C2" ?
Result: 4.76

Problem: Could you share which pIC50 value was measured for "O=C(c1noc(-c2cc(F)c(F)c(O)c2F)n1)N1CC=C(c2ccccc2)CC1" ?
Result: 5.52

Problem: Could you share which pIC50 value was measured for "O=C(c1noc(-c2cc(F)c(F)c(O)c2F)n1)N1CCO[C@@H]2CCC[C@@H]21" ?
Result: 4.34

Problem: Could you share which pIC50 value was measured for "CC(C)(C)N(Cc1ccccn1)C(=O)c1noc(-c2cc(F)c(F)c(O)c2F)c1C#N" ?
Result: 4.71

Problem: Could you share which pIC50 value was measured for "C[C@@H]1CN(C(=O)c2noc(-c3cc(F)c(F)c(O)c3F)n2)C[C@@H](C)O1" ?
Result: 4.44

Problem: Could you share which pIC50 value was measured for "COc1ccc(OC2CCN(C(=O)c3noc(-c4cc(F)c(F)c(O)c4F)n3)CC2)nc1" ?
Result: 4.58

Problem: Could you share which pIC50 value was measured for CC(C)C1COCCN1C(=O)c1noc(-c2cc(F)c(F)c(O)c2F)n1 (stereo not drawn) ?
Result: 4.37

Problem: Could you share which pIC50 value was measured for "O=C(c1cc(-c2cc(F)c(F)c(O)c2F)on1)N1CC[C@H](c2ccc(Cl)cc2)C1" ?
Result: 5.17

Problem: Could you share which pIC50 value was measured for "O=C(c1noc(-c2cc(F)c(F)c(O)c2F)n1)N1CC(Oc2ccccc2)C1" ?
Result: 5.17

Problem: Could you share which pIC50 value was measured for "N#CC1(c2ccccc2)CCN(C(=O)c2noc(-c3cc(F)c(F)c(O)c3F)n2)CC1" ?
Result: 4.66

Problem: Could you share which pIC50 value was measured for "N#Cc1cccc(C2CN(C(=O)c3noc(-c4cc(F)c(F)c(O)c4F)n3)C2)c1" ?
Result: 4.66

Problem: Could you share which pIC50 value was measured for "COc1cccc(N2CCN(C(=O)c3noc(-c4cc(F)c(F)c(O)c4F)c3C#N)CC2)c1" ?
Result: 4.81

Problem: Could you share which pIC50 value was measured for "N#Cc1ccc2c(c1)CN(C(=O)c1noc(-c3cc(F)c(F)c(O)c3F)c1C#N)CC2" ?
Result: 4.75

Problem: Could you share which pIC50 value was measured for CC1CN(C(=O)c2noc(-c3cc(F)c(F)c(O)c3F)n2)CC(C)(C)O1 (stereo not drawn) ?
Result: 4.40

Problem: Could you share which pIC50 value was measured for "N#Cc1ccc2c(c1)CN(C(=O)c1noc(-c3cc(F)c(F)c(O)c3F)n1)CC2" ?
Result: 5.07

Problem: Could you share which pIC50 value was measured for "O=C(c1noc(-c2cc(F)c(F)c(O)c2F)n1)N1CC(c2ccccc2)C1" ?
Result: 4.96

Problem: Could you share which pIC50 value was measured for CC1CN(C(=O)c2noc(-c3cc(F)c(F)c(O)c3F)n2)CC2(CCC2)O1 (racemic) ?
Result: 4.49

###

target: recombinant 17bHSD13 (N2-K300) (Homo sapiens (Human)); experiment: In Vitro 17bHSD13 Enzyme Assay; details: 80 nM 17bHSD13, 0.5 mM NAD, 20 μM Estradiol, 2.5 h; estradiol to estrone by LC-MS/MS
Sequence (Q7Z5P4 2-300): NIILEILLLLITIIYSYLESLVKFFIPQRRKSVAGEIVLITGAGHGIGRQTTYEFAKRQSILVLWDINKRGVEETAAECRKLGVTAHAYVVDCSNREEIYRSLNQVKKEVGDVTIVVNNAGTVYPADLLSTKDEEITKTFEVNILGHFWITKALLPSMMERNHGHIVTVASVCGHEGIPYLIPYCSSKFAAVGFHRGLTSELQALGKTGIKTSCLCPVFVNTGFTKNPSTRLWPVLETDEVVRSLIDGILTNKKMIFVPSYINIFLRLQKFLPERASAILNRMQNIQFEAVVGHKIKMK
recorded-endpoint: IC50
A bare number is not enough; add the unit after it.

Problem: Could you share which IC50 value was measured for "O=C(c1noc(-c2cc(F)c(F)c(O)c2F)n1)N1CCN(c2ccccc2)CC1" ?
Result: 95 nM

Problem: Could you share which IC50 value was measured for O=C(c1noc(-c2cc(F)c(F)c(O)c2F)n1)N1CCC(Oc2ccc(F)cc2)C1 (centres unmarked) ?
Result: 106 nM

Problem: Could you share which IC50 value was measured for "O=C(c1noc(-c2cc(F)c(F)c(O)c2F)n1)N1CC[C@@H](c2ccc(Cl)cc2)C1" ?
Result: 26 nM

Problem: Could you share which IC50 value was measured for CC1CN(C(=O)c2noc(-c3cc(F)c(F)c(O)c3F)n2)CC(C)(C)O1 (centres unmarked) ?
Result: 234 nM

Problem: Could you share which IC50 value was measured for "C[C@@H]1CN(C(=O)c2cc(-c3cc(F)c(F)c(O)c3F)on2)C[C@H](C)O1" ?
Result: 168 nM

Problem: Could you share which IC50 value was measured for CC[C@H]1CN(C(=O)c2noc(-c3cc(F)c(F)c(O)c3F)n2)C[C@@H](C)O1 (racemic) ?
Result: 130 nM

Problem: Could you share which IC50 value was measured for O=C(c1noc(-c2cc(F)c(F)c(O)c2F)n1)N1CCC(c2ccccc2)C1 (centres unmarked) ?
Result: 47 nM

Problem: Could you share which IC50 value was measured for "O=C(c1noc(-c2cc(F)c(F)c(O)c2F)n1)N1CCC(Oc2cccnc2)CC1" ?
Result: 242 nM

###

Biological target: over expressed HSD17β13 in HEK293S cells (Homo sapiens (Human), UniProt Q7Z5P4)
Sequence (Q7Z5P4 20-300): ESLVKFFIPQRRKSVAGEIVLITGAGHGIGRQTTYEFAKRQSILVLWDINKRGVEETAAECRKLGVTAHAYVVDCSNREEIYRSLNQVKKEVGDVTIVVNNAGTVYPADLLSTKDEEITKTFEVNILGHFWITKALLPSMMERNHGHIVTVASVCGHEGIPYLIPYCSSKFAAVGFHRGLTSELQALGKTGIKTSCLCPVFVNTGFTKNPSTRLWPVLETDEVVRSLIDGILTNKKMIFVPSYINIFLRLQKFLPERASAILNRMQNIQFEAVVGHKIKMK
Assay: In Vitro 17bHSD13 Cell Assay
Type: cell-based
Conditions: HEK293S cells over expressing HSD17β13; estradiol to estrone conversion, 18 h, LC-MS/MS; read-out: 17bHSD1713 Cell assay IC50
Procedure: In Vitro 17bHSD13 Cell Assay Inhibition of 17bHSD13 was measured in a cell-based assay with over expressed HSD17β13 in HEK293S cells, measuring estradiol to estrone conversion by LCMS/MS. Samples were analyzed using LC-MS/MS. SCIEX LC-MS/MS system: Sample was injected with CTC analytical injector, SHIMATZU LC pumps LC20 and analysed on the SCIEX API 5000 LCMSMS system with the following settings. […] Compound effect was calculated with the formula below; […]
Provide the recorded pIC50 for the entries that follow.
// pIC50 is dimensionless: -log10 of concentration (M)

Problem: Could you share which pIC50 value was measured for O=C(NCc1ccnn1C1CCCCC1)c1cnc(-c2ccc(F)c(O)c2)o1 [Example 100] ?
Result: 4.74

Problem: Could you share which pIC50 value was measured for O=C(c1noc(-c2cc(F)c(F)c(O)c2F)n1)N1CCN(c2ccccn2)CC1 [Example 58] ?
Result: 5.97

Problem: Could you share which pIC50 value was measured for CC[C@H]1CN(C(=O)c2noc(-c3cc(F)c(F)c(O)c3F)n2)C[C@@H](C)O1 (racemic) [Example 121] ?
Result: 7.70

Problem: Could you share which pIC50 value was measured for COc1cccc(N2CCN(C(=O)c3noc(-c4cc(C(F)(F)F)[nH]c(=O)c4)n3)CC2)c1 [Example 10] ?
Result: 5.38

Problem: Could you share which pIC50 value was measured for C[C@@H]1CN(C(=O)c2cc(-c3cc(F)c(F)c(O)c3F)on2)C[C@H](C)O1 [Example 89] ?
Result: 7.15

Problem: Could you share which pIC50 value was measured for CC1(C)COCCN1C(=O)c1noc(-c2cc(F)c(F)c(O)c2F)n1 [Example 48] ?
Result: 5.96

Problem: Could you share which pIC50 value was measured for O=C(c1noc(-c2cc(F)c(F)c(O)c2F)n1)N1CC[C@@H](Oc2ccccc2)C1 [Example 98] ?
Result: 6.28

Problem: Could you share which pIC50 value was measured for O=C(c1noc(-c2cc(F)c(F)c(O)c2F)n1)N1CC(Oc2ccccc2)C1 [Example 2] ?
Result: 5.79

Problem: Could you share which pIC50 value was measured for C[C@@H]1CN(C(=O)c2noc(-c3cc(O)c(F)c(F)c3)n2)C[C@H](C)O1 [Example 116] ?
Result: 7.22

Problem: Could you share which pIC50 value was measured for CN(C(=O)c1cc(-c2ccc(F)c(O)c2)on1)c1ccnn1C1CCCCC1 [Example 7] ?
Result: 5.30

Problem: Could you share which pIC50 value was measured for Cc1ccc2[nH]c(CN(C)C(=O)c3noc(-c4cc(F)c(F)c(O)c4F)n3)nc2c1 [Example 73] ?
Result: 4.67

Problem: Could you share which pIC50 value was measured for CN(C)C(=O)C1CCCN1C(=O)c1ccc(-c2cc(F)c(F)c(O)c2F)s1 (stereo not drawn) [Example 105] ?
Result: 5.90

Problem: Could you share which pIC50 value was measured for O=C(c1ccc(-c2cc(F)c(F)c(O)c2F)s1)N1CC[C@H](c2ccccc2)C1 [Example 33] ?
Result: 5.92

Problem: Could you share which pIC50 value was measured for C[C@@H]1CN(C(=O)c2noc(-c3c(F)c(O)c(F)c(F)c3I)n2)C[C@H](C)O1 [Example 108] ?
Result: 6.31

Problem: Could you share which pIC50 value was measured for O=C(c1noc(-c2ccc(F)c(O)c2)n1)N1CC[C@H](c2ccccc2)C1 [Example 11] ?
Result: 6.10

Problem: Could you share which pIC50 value was measured for CC1(C)CN(C(=O)c2noc(-c3cc(F)c(F)c(O)c3F)n2)CC(C)(C)O1 [Example 32] ?
Result: 6.52

Problem: Could you share which pIC50 value was measured for CC(C)(C)N(Cc1ccccn1)C(=O)c1noc(-c2cc(F)c(F)c(O)c2F)c1C#N [Example 19] ?
Result: 5.70

Problem: Could you share which pIC50 value was measured for O=C(c1noc(-c2cc(F)c(F)c(O)c2F)n1)N1Cc2ccc(F)cc2C1 [Example 65] ?
Result: 6.70

Problem: Could you share which pIC50 value was measured for O=C(c1noc(-c2cc(F)c(F)c(O)c2F)n1)N1CCC(OCc2ccccc2)C1 (stereo not drawn) [Example 97] ?
Result: 6.05

Problem: Could you share which pIC50 value was measured for CC1CN(C(=O)c2noc(-c3cc(F)c(F)c(O)c3F)n2)CC(C)(C)O1 (stereo not drawn) [Example 117] ?
Result: 7.05

Problem: Could you share which pIC50 value was measured for O=C(c1cc(-c2cc(F)c(F)c(O)c2F)on1)N1CC[C@H](c2ccccc2)C1 [Example 104] ?
Result: 6.27

Problem: Could you share which pIC50 value was measured for Cc1cccnc1CN(C(=O)c1noc(-c2cc(F)c(F)c(O)c2F)n1)C(C)C [Example 75] ?
Result: 5.25

Problem: Could you share which pIC50 value was measured for N#Cc1c(C(=O)N2CCN(c3ccccn3)CC2)noc1-c1cc(F)c(F)c(O)c1F [Example 15] ?
Result: 6.01

Problem: Could you share which pIC50 value was measured for N#Cc1c(C(=O)N2CCN(c3ccc4nnc(C(F)(F)F)n4n3)CC2)noc1-c1cc(F)c(F)c(O)c1F [Example 17] ?
Result: 5.51

Problem: Could you share which pIC50 value was measured for Cn1nc(C2CC2)c2c1CCN(C(=O)c1noc(-c3cc(F)c(F)c(O)c3F)c1C#N)C2 [Example 20] ?
Result: 5.62

Problem: Could you share which pIC50 value was measured for C[C@@H]1C[C@H](C)CN(C(=O)c2noc(-c3cc(F)c(F)c(O)c3F)n2)C1 [Example 37] ?
Result: 7.52

Problem: Could you share which pIC50 value was measured for O=C(c1noc(-c2cc(F)c(F)c(O)c2F)n1)N1CC(c2ccccc2)C1 [Example 60] ?
Result: 5.53

Problem: Could you share which pIC50 value was measured for N#Cc1ccc2c(c1)CN(C(=O)c1noc(-c3cc(F)c(F)c(O)c3F)c1C#N)CC2 [Example 29] ?
Result: 6.36

Problem: Could you share which pIC50 value was measured for CN(C(=O)c1noc(-c2cc(F)c(F)c(O)c2F)n1)c1cccc(C#N)c1 [Example 63] ?
Result: 5.92

Problem: Could you share which pIC50 value was measured for C[C@@H]1COC[C@H](C)N1C(=O)c1noc(-c2cc(F)c(F)c(O)c2F)n1 [Example 36] ?
Result: 5.88

Problem: Could you share which pIC50 value was measured for COc1ccc(C(C)N(C)C(=O)c2noc(-c3cc(F)c(F)c(O)c3F)n2)cc1 (stereo not drawn) [Example 78] ?
Result: 6.10

Problem: Could you share which pIC50 value was measured for O=C(c1noc(-c2cc(F)c(F)c(O)c2F)n1)N1CCC(c2ccccc2)C1 (stereo not drawn) [Example 96] ?
Result: 6.77

Problem: Could you share which pIC50 value was measured for O=C(c1noc(-c2cc(F)c(F)c(O)c2F)n1)N1CCO[C@@H]2CCC[C@@H]21 [Example 113] ?
Result: 7.00
